Values were extracted from patent US20180057581A1.

testedSystem: native human M-CSF (in human serum or in MDA-MB-231 conditioned medium) (human), P09603
Sequence (P09603 33-255): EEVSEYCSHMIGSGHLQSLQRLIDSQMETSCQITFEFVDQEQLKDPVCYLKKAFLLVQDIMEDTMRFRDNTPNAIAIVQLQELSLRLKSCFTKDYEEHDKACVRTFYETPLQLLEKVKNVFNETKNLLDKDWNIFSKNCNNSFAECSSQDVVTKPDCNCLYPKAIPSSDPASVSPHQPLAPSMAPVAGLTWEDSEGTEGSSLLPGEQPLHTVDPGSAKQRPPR
testDescription: cell-based or functional assay
Please respond with reported IC50, inhibition of M-NFS-60 proliferation induced by MDA-MB-231 conditioned medium for every item in the list.
Entry rule: numbers only, all in nM.

Inquiry: So what does the record say about IC50, inhibition of M-NFS-60 proliferation induced by MDA-MB-231 conditioned medium for Celine, IgG1_D265A (antibody, V domains shown) VH: QVQLQQSGPGLVKPSQTLSLTCAISGDSVSTSSAAWNWIRQSPSRGLEWLGRTYYRSKWKHEYAVSVKSRITINPDTSKNQFSLQLNSVTPEDTAVYYCARDRYYYSAFDYWGQGTLVTVSS VL: QSALTQPASVSGSPGQSITISCTGTSSDVGGYNSVSWYQQHPGKAPKLIIYAVSNRPSGVSNRFSGSKSGNTASLTISGLQAEDEADYYCASYDERFTRVFGGGTKLTVLGQ ?
Reply text: 0.0724

Inquiry: So what does the record say about IC50, inhibition of M-NFS-60 proliferation induced by MDA-MB-231 conditioned medium for Romaine, IgG1_D265A (antibody, V domains shown) VH: EVQLVESGGGLVKPGGSLRLSCAASGFTFSIYAMSWVRQAPGKGLEWVGRIKSNADGGTTEYAAPVKGRFTISRDDSKNTLYLQMNSLKTEDTAVYYCARMRYYSDLYFDPWGQGTLVTVSS VL: DIELTQPPSVSVSPGQTASITCSGDAIGSKYVHWYQQKPGQAPVLVISKDNKRPSGIPERFSGSNSGNTATLTISGTQAEDEADYYCQTATVSSYWWVFGGGTKLTVLGQ ?
Reply text: 0.0833
